Every entry's value here was drawn from paper PMC6835155.

Target: LIMK1KD (Homo sapiens, UniProt P53667)
Construct: His6 (N, cleaved yes); made in house; host or cells: baculovirus; Sf9 for virus, TriEx insect cells for expression
Sequence (P53667 330-637): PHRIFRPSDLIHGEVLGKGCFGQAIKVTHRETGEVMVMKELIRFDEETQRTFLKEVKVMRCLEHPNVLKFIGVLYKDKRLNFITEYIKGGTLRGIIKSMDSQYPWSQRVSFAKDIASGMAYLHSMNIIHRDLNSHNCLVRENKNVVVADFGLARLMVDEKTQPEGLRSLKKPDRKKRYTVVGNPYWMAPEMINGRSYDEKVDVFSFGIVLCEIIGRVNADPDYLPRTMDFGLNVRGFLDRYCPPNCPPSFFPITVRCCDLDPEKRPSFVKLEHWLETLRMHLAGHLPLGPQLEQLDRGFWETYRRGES
Experiment: Differential (dynamic) scanning fluorimetry (DSF) assay, LIMK1KD
Assay type: binding
Details: 2 µM LIMK1KD, compound 10 µM, single shot
Recorded TM Shift LIMK1 (K) for the following molecules

molecule	TM Shift LIMK1 (K)
CC(C)N(CCC(=O)c1ccc2ccccc2c1)Cc1ccccc1.Cl [ZM 39923 HCl]	0.2
CCN1CCN(C(=O)Cc2ccc(Nc3ncc(F)c(Nc4ccc(C(=O)Nc5ccccc5Cl)cc4)n3)cc2)CC1 [Aurora A Inhibitor I]	4.9
N#CC(C#N)=Cc1ccc(O)c(O)c1 [AG-18]	0.1
